test system: HepG2; assay: HepG2 toxicity (resazurin), effect normalised to DMSO (DMSO = 0); higher = more features changed / larger toxic effect; conditions: incubation time: 70h incubation; 10 µM
Structures can show the parent of a compound that is named as a salt.
endpointLabel: HepG2 toxicity (%)
Give the number; % is assumed, so skip it.

[
  {
    "compound": "COc1ccc(CCCN2CCC(COC(c3ccccc3)c3ccccc3)CC2)cc1",
    "endpointLabel": "HepG2 toxicity",
    "reportedMeasurement": 1.6
  },
  {
    "compound": "COc1cc(N2CCOCC2)ccc1Nc1ncc(F)c(Nc2ccccc2NS(C)(=O)=O)n1",
    "endpointLabel": "HepG2 toxicity",
    "reportedMeasurement": 11.9
  },
  {
    "compound": "C=CC[C@@H]1/C=C(\\C)C[C@H](C)C[C@H](OC)[C@H]2O[C@@](O)(C(=O)C(=O)N3CCCC[C@H]3C(=O)O[C@H](/C(C)=C/[C@@H]3CC[C@@H](O)[C@H](OC)C3)[C@H](C)[C@@H](O)CC1=O)[C@H](C)C[C@@H]2OC",
    "endpointLabel": "HepG2 toxicity",
    "reportedMeasurement": -3.53
  },
  {
    "compound": "CC(C)[C@H]1c2ccc(F)cc2CC[C@@]1(CCN(C)CCCc1nc2ccccc2[nH]1)OC(=O)C1CC1 [NNC 55-0396 dihydrochloride]",
    "endpointLabel": "HepG2 toxicity",
    "reportedMeasurement": 102
  }
]

Q: Item CCOc1ccc(-c2nc(-c3cccc4c3CCC4NCCO)no2)cc1OCC (stereo unspecified) [CYM 5442 hydrchloride] has what recorded HepG2 toxicity?
Result: 14.4

Q: Entry to check: CN(c1ccccc1CNc1nc(Nc2ccc3c(c2)CC(=O)N3)ncc1C(F)(F)F)S(C)(=O)=O
Result: 95.1

###

test system: HeLa; test: HeLa toxicity: nuclei-count effect normalised to DMSO (DMSO = 0); higher = more features changed / larger toxic effect; settings: incubation time: 24h incubation; 9.99 µM
Counter-ions that a name gives are not always drawn.
endpointLabel: HeLa toxicity: nuclei-count effect normalised (%)
Just the number in %, nothing appended.

Sample answers from the record:
[
  {
    "compound": "CC(=O)N1CCC(C(=O)N(CCCN2CCN(Cc3ccc(F)cc3)CC2)c2ccc(C)c(Cl)c2)CC1 [B07 hydrochloride]",
    "unitAnnotation": "%",
    "reportedMeasurement": -8.22
  },
  {
    "compound": "Oc1c(Cl)cc(Cl)cc1Sc1cc(Cl)cc(Cl)c1O",
    "unitAnnotation": "%",
    "reportedMeasurement": -4.61
  },
  {
    "compound": "O=C(c1cccs1)c1no[n+]([O-])c1C(=O)c1cccs1",
    "unitAnnotation": "%",
    "reportedMeasurement": 36.5
  }
]

Pending compound:
Q: Fill in: HeLa toxicity: nuclei-count effect normalised of COc1cc(C)c2c(Oc3cccc(C(F)(F)F)c3)c(OC)cc(NC(C)CCCN)c2n1 (centres undefined) is ___
Result: 97.2

###

The following molecules are shown together with reported progressively motile sperm values.
system: human spermatozoa; test: progressively motile sperm, percent change vs DMSO (non-capacitating); higher = more of the measured sperm population than DMSO, for viability, fewer PI-positive (dead) cells than DMSO; extreme values may be limits of the assay; conditions: incubation time: 6h incubation, 29.9 µM
Counter-ions that a name gives are not always drawn.
# output: bare number, implied unit %

[
  {
    "molecule": "CC(C)[C@H]1c2ccc(F)cc2CC[C@@]1(CCN(C)CCCc1nc2ccccc2[nH]1)OC(=O)C1CC1 [NNC 55-0396 dihydrochloride]",
    "unitAnnotation": "%",
    "progressively motile sperm": -100
  }
]

Q: Item under review: COc1cc2ncn(-c3cc(OCc4ccccc4C(F)(F)F)c(C(N)=O)s3)c2cc1OC . Reported progressively motile sperm?
Result: -68.4

Q: What do you get for Clc1ccc(C(OCCN2CCCCC2)c2ccccc2)cc1 (stereo not given) [Cloperastine hydrochloride] ?
Result: -97.8

Q: And the next one, CC(=O)N1CCC(C(=O)N(CCCN2CCN(Cc3ccc(F)cc3)CC2)c2ccc(C)c(Cl)c2)CC1 [B07 hydrochloride] ?
Result: -0.382

Q: What do we get for CCCCCCCCOc1ccc(-c2noc([C@@H]3CCCN3C(=N)N)n2)cc1C(F)(F)F ?
Result: -99.9

###

Items are presented alongside their recorded HeLa toxicity: nuclei-count effect normalised.
system: HeLa; assay: HeLa toxicity: nuclei-count effect normalised to DMSO (DMSO = 0); higher = more features changed / larger toxic effect; settings: incubation time: 24h incubation; 9.99 µM
Counter-ions that a name gives are not always drawn.
Note: unit % is implicit; provide only the numeric part.

As a guide, the following entries are already answered.
[
  {
    "molecule": "COCC(=O)O[C@]1(CCN(C)CCCc2nc3ccccc3[nH]2)CCc2cc(F)ccc2[C@@H]1C(C)C",
    "reportedMeasurement": 35.6
  },
  {
    "molecule": "O=S(=O)(NCCNC/C=C/c1ccc(Br)cc1)c1cccc2cnccc12 [H 89 dihydrochloride]",
    "reportedMeasurement": 7.55
  },
  {
    "molecule": "C=C[C@@]1(C)CC(=O)[C@@]2(O)[C@](C)(O1)[C@@H](OC(C)=O)[C@@H](O)C1C(C)(C)CC[C@H](O)[C@@]12C (stereo partly drawn)",
    "reportedMeasurement": -1.74
  },
  {
    "molecule": "C[C@]1(O)C[C@@H](c2nc(-c3ccc4ccc(-c5ccccc5)nc4c3)c3c(N)nccn32)C1",
    "reportedMeasurement": 2.74
  },
  {
    "molecule": "Nc1nonc1C(=O)c1cccc(OCc2nc3ccccc3[nH]2)c1",
    "reportedMeasurement": -5.48
  }
]

Q: GET /values?readout=HeLa toxicity: nuclei-count effect normalised&item= COc1ccc(CCCN2CCC(COC(c3ccccc3)c3ccccc3)CC2)cc1
Result: 11.7

Q: Try this molecule too: Cc1ccc(S(=O)(=O)c2ccc([N+](=O)[O-])o2)cc1
Result: 83

Q: Same again, this time with Nc1ncnc2c1c(-c1cccc(OCc3ccccc3)c1)cn2[C@H]1C[C@@H](CN2CCC2)C1
Result: 27.7

###

tested on: human spermatozoa; assay: progressively motile sperm, percent change vs DMSO (non-capacitating); higher = more of the measured sperm population than DMSO, for viability, fewer PI-positive (dead) cells than DMSO; extreme values may be limits of the assay; conditions: incubation time: 6h incubation, 9.99 µM;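 further: pooled live human sperm from at least 3 donors, tracked by automated microscopy in 0.5 s time-lapse movies, compounds at 10 and 30 µM, versus median of 16 DMSO wells per plate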
endpointLabel: progressively motile sperm (%)
// return numeric value only (unit: %, not printed)

Q: Any idea what its progressively motile sperm is? The compound is CCOc1ccc(-c2nc(-c3cccc4c3CCC4NCCO)no2)cc1OCC (stereo not given) [CYM 5442 hydrchloride]
Result: 51.9

###

test system: HepG2; assay: HepG2 toxicity (resazurin), effect normalised to DMSO (DMSO = 0); higher = more features changed / larger toxic effect; conditions: incubation time: 70h incubation; 10 µM
endpointLabel: HepG2 toxicity (%)
# unit: % | format: bare number

Solved cases (4 shown):
[
  {
    "compound": "CN(C)CCCn1cc(C2=C(c3c[nH]c4ccccc34)C(=O)NC2=O)c2ccccc21",
    "endpointLabel": "HepG2 toxicity",
    "reportedMeasurement": -5.59
  },
  {
    "compound": "O=C(O)c1ccc(/C=C2/SC(=S)N(c3cccc(C(F)(F)F)c3)C2=O)cc1",
    "endpointLabel": "HepG2 toxicity",
    "reportedMeasurement": 10.5
  },
  {
    "compound": "O=C(N1CCCCC1)N1CCCCC1Cc1ccccc1 (stereo not given)",
    "endpointLabel": "HepG2 toxicity",
    "reportedMeasurement": 5.44
  },
  {
    "compound": "CCOc1ccccc1OCCN[C@H](C)Cc1ccc(OC)c(S(N)(=O)=O)c1",
    "endpointLabel": "HepG2 toxicity",
    "reportedMeasurement": -2.54
  }
]

Here is the next item to consider.
Q: // fetch HepG2 HepG2 toxicity for COc1cc2ncn(-c3cc(OCc4ccccc4C(F)(F)F)c(C(N)=O)s3)c2cc1OC
Result: 17.5

###

test system: HepG2; test: HepG2 toxicity (resazurin), effect normalised to DMSO (DMSO = 0); higher = more features changed / larger toxic effect; details: incubation time: 70h incubation; 30 µM
Counter-ions that a name gives are not always drawn.
endpointLabel: HepG2 toxicity (%)
Just the number please, in %, no unit attached.

Consider the following illustrative entries.
[
  {
    "molecule": "NC(=O)Nc1cc(-c2cccc(F)c2)sc1C(=O)N[C@H]1CCCNC1 [AZD 7762 hydrochloride]",
    "tgt": "HepG2",
    "unitAnnotation": "%",
    "HepG2 toxicity": 101
  },
  {
    "molecule": "COc1cc(SC)ccc1C(=O)N1CCC(Cc2ccccc2)CC1",
    "tgt": "HepG2",
    "unitAnnotation": "%",
    "HepG2 toxicity": -2.23
  },
  {
    "molecule": "CCOc1ccccc1OCCN[C@H](C)Cc1ccc(OC)c(S(N)(=O)=O)c1",
    "tgt": "HepG2",
    "unitAnnotation": "%",
    "HepG2 toxicity": 9.76
  },
  {
    "molecule": "Nc1nc(Cl)nc2c1ncn2[C@@H]1O[C@H](CO)[C@@H](O)[C@@H]1F",
    "tgt": "HepG2",
    "unitAnnotation": "%",
    "HepG2 toxicity": 19.6
  },
  {
    "molecule": "O=c1c(-c2ccc(O)cc2)coc2cc(O)cc(O)c12",
    "tgt": "HepG2",
    "unitAnnotation": "%",
    "HepG2 toxicity": -8.2
  }
]

Q: Given the molecule Oc1c(Cl)cc(Cl)c(Cl)c1Cc1c(O)c(Cl)cc(Cl)c1Cl , what is its reported HepG2 toxicity?
Result: 74.5

Q: Here is the next molecule: O=C(O)c1cccnc1Nc1cccc(C(F)(F)F)c1
Result: -6.15

Q: Moving on to the next molecule: COc1ccc(CCCN2CCC(COC(c3ccccc3)c3ccccc3)CC2)cc1
Result: 103

Q: Here is the next molecule: CC(C)(C)c1ccc(S(=O)(=O)Nc2ccc(OC(F)(F)F)c(F)c2-c2ccc(C(=O)O)c3ncccc23)cc1F
Result: -7.66

Q: Record: COc1cc(C)c2c(Oc3cccc(C(F)(F)F)c3)c(OC)cc(NC(C)CCCN)c2n1 (stereo not given)
Result: 103

Q: Same again, this time with Nc1nonc1C(=O)c1cccc(OCc2nc3ccccc3[nH]2)c1
Result: -4.37

Q: Entry to check: Oc1c(Cl)cc(Cl)cc1Sc1cc(Cl)cc(Cl)c1O
Result: 59.3

Q: Moving on to the next molecule: COC(=O)c1c(C)[nH]c(C)c1C(=O)c1ccccc1Cc1ccccc1
Result: 10.6
